- System: Nucleic Acid
- PROTOCOL_TEXT: Binding affinity to calf thymus DNA assessed as change in melting temperature at drug/base pair ratio of 0.5 by UV-visible spectrophotometric analysis
- Format: nucleic-acid assay
- ASSAY_CONDITIONS: Bos taurus
ENDPOINT: ΔTm (°C)

INSERT INTO assay_data (line_notation, experimental_value) VALUES
  ('O=C(Nc1ccc(C2=NCCN2)cc1)c1sc2cc(C3=NCCN3)ccc2c1Cl', 28.4),
  ('O=C(Nc1ccccc1)c1sc2cc(C3=NCCN3)ccc2c1Cl', 3.8),
  ('Cn1c(=O)c2sc3ccccc3c2c2cc(C3=NCCN3)ccc21', 15.6),
  ('O=c1[nH]c2ccccc2c2c1sc1cc(C3=NCCN3)ccc12', 14.6),
  ('O=C(Nc1ccc(C2=NCCN2)cc1)c1sc2ccccc2c1Cl', 6.8);
